- Tested on: MDAMB157
- assay protocol: GRmax, 72 h; higher = less effect;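 note: breast cell lines in 384-well plates, nine doses across a 10^4 range, Dye Drop imaging of viable cells vs DMSO and time-zero plates, GR 0 means no net growth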
Each entry gets condition not met if its GRmax, 72 h stays under 0.2 GR, and condition met if its GRmax, 72 h is 0.2 GR or above.

Some solved entries appear below for comparison.
COc1cc([C@@H]2c3cc4c(cc3[C@@H](O[C@@H]3O[C@@H]5CO[C@@H](C)O[C@H]5[C@H](O)[C@H]3O)[C@H]3COC(=O)[C@H]23)OCO4)cc(OC)c1O [Etoposide] (max 10 µM): condition not met
N.N.[Cl][Pt][Cl] [Cisplatin] (max 10 µM): condition not met
Cc1nc(NC(=O)N2CCC[C@H]2C(N)=O)sc1-c1ccnc(C(C)(C)C(F)(F)F)c1 [Alpelisib/BYL719] (max 10 µM): condition met
Cc1cc(C(C)Nc2ccccc2)c2nc(N3CCOCC3)cc(=O)n2c1 (centres undefined) [TGX221] (max 10 µM): condition met
Nc1cc(C(F)(F)F)c(-c2cc(N3CCOCC3)nc(N3CCOCC3)n2)cn1 [Buparlisib/NVP-BKM120] (max 10 µM): condition not met

With those in mind, consider the next molecule.
I'd appreciate it if you could say whether O=C(c1cc(Cc2n[nH]c(=O)c3ccccc23)ccc1F)N1CCN(C(=O)C2CC2)CC1 [Olaparib/AZD2281] (max 10 µM) has GRmax, 72 h at least equal to 0.2 GR.
condition not met
